assay: NOD1 signaling inhibitors, primary screen, cell-based, luminescence, uHTS (AID 1578); settings: NOD1-driven NF-kB luciferase reporter cells, at 4 µM, stronger effect = higher value;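 further: HEK-293T reporter cells stimulated with the NOD1 agonist gamma-tri-DAP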
Among all 290,000 compounds or so, about 3,000 (1%) were called active. The list comes from a sample in which actives are over-represented; it also holds close analogues and randomly drawn compounds.
Item-by-item account of inhibition
ASSAY METRIC: inhibition

1. COc1cc(-c2cc(C(=O)Nc3ccc(O)cc3)c3ccccc3n2)cc(OC)c1OC | 6.4% (inactive)
2. CCCCn1c(SCC(=O)N2CCOCC2)nc2ccccc2c1=O | -11.7% (inactive)
3. CCOC(=O)COn1c(=O)c(-c2ccccc2)[n+]([O-])c2ccccc21 | 0.2% (inactive)
4. COc1ccc2c(CC(=O)NCCN3C(=O)S/C(=C\c4cccnc4)C3=O)coc2c1 | 68% (active)
5. Cc1c(C(=O)NCCN2C(=O)S/C(=C\c3cccnc3)C2=O)cccc1[N+](=O)[O-] | 1.5% (inactive)
6. COc1ccc(NC(=O)c2cc(-c3cc(OC)c(OC)c(OC)c3)nc3ccccc23)cc1OC | 43.8% (inactive)
7. CC1CCc2c(c3ccccc3n2C(=O)CCl)C1 (configuration not stated) | 74.2% (active)
8. Cc1c(NC(=O)C(C#N)=C2CCCCC2)c(=O)n(-c2ccccc2)n1C | -3.8% (inactive)
9. CCOC(=O)N1CCN(C(=O)c2cccc(F)c2)CC1 | -43.9% (inactive)
10. Cc1ccccc1S(=O)(=O)Cc1ccc(C(=O)NCCCN2CCN(C)CC2)o1 | -8.5% (inactive)
11. CC1CCN(CC(=O)n2c3c(c4ccccc42)CCCC3)CC1 | 7.8% (inactive)
12. COc1ccc(C(=O)NCCN2C(=O)S/C(=C\c3cccnc3)C2=O)cc1[N+](=O)[O-] | 1.6% (inactive)
13. C/C(N)=C(/C#N)C(=O)COC(=O)c1cccc(O)c1 | -29.6% (inactive)
14. O=C(O)CCCCCCC1C(=O)NC(=O)N1CCC(O)C1CCCCC1 (configuration not stated) | 75.2% (active)
15. CS(=O)(=O)c1ccc(C(=O)NCCN2C(=O)S/C(=C\c3cccnc3)C2=O)cc1[N+](=O)[O-] | 93.4% (active)
16. Cc1ccnc(NC(=O)/C=C/c2ccccc2[N+](=O)[O-])c1 | -40.4% (inactive)
17. CSc1nncc(-c2ccc(F)cc2)n1 | 12.5% (inactive)
18. N#Cc1c(NC(=O)CSc2nnc(-c3ccccc3O)n2-c2ccccc2)sc2c1CCCC2 | -23.8% (inactive)
19. COC(=O)Nc1ccc(N2CCOCC2)c(S(=O)(=O)N2CCOCC2)c1 | -18% (inactive)
20. CN(C(=O)n1cnc2ccccc21)c1ccccc1 | -29.2% (inactive)
21. Fc1cccc(CNc2ncnc3cc(Cl)ccc23)c1F | 0.2% (inactive)
22. CCCS(=O)(=O)N1CCCC(C(=O)Oc2ccc(OC)cc2)C1 (configuration not stated) | -5.5% (inactive)
